Reference source: patent US4456611A

# Test system: endogenous serotonin in the brain
# procedure.details: biochemical assay of endogenous serotonin in the brain of rats after oral administration of a single dose
# Format: in vivo
# run.parameters: orally, single dose of 10 mg/kg, Wistar male adult rats
// assign met if % increase of brain serotonin falls strictly below 20%, else not met (ties count as not met)

A selection of reference data follows.
| compound | class.assignment |
| --- | --- |
| N[C@@H](Cc1c[nH]c2ccc(O)cc12)C(=O)O [(L)5 HTP, 5-hydroxy-tryptophane, reference compound] | met |
| CCOC(=O)COC(=O)[C@@H](N)Cc1c[nH]c2ccc(O)cc12 | not met |
| CCCCCCCCCCCCOC(=O)COC(=O)[C@@H](N)Cc1c[nH]c2ccc(O)cc12 [Example 13b] | not met |
| CC(OC(=O)COC(=O)[C@@H](N)Cc1c[nH]c2ccc(O)cc12)C(C)(C)C (stereo partly shown) [Example 14c] | not met |

*Q* Below 20% on % increase of brain serotonin? Entry N[C@@H](Cc1c[nH]c2ccc(O)cc12)C(=O)OCC(=O)OCC12CC3CC(CC(C3)C1)C2 [Example 15b]
*A* met

*Q* Try CCCCCCCCOC(=O)COC(=O)[C@@H](N)Cc1c[nH]c2ccc(O)cc12 [Example 12b] next.
*A* met
